Examples of molecules with documented pEC50 follow.
- Assayed System: 5-HT2C (Homo sapiens)
- Sequence (P28335 33-458): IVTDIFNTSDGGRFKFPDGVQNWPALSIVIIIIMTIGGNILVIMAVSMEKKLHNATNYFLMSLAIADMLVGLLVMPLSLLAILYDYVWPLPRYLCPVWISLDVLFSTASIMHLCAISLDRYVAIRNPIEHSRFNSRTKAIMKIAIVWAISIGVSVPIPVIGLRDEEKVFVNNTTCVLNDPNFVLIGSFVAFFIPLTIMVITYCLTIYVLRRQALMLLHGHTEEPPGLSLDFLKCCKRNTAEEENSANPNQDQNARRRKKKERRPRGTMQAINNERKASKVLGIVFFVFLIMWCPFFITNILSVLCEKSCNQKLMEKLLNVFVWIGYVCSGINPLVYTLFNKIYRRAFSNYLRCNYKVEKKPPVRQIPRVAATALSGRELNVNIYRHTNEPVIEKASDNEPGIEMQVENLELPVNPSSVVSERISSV
- Measurement Description: cell-based
- Test Conditions: IP-1 accumulation
pEC50: −log10 of the molar value.

>  <Molecule>
COCCc1cc(CCN)c(OC)cc1Br [Compound 2CB-5ME, reference compound]

>  <pEC50>
6.58

$$$$
>  <Molecule>
COCc1cc(CCN)c(OC)cc1Br

>  <pEC50>
6.65

$$$$

* * *

- Assayed System: beta2 (h) (Homo sapiens)
- Construct: expressed in transfected cells; host or cells: CHO cells
- Sequence (P07550 whole entry): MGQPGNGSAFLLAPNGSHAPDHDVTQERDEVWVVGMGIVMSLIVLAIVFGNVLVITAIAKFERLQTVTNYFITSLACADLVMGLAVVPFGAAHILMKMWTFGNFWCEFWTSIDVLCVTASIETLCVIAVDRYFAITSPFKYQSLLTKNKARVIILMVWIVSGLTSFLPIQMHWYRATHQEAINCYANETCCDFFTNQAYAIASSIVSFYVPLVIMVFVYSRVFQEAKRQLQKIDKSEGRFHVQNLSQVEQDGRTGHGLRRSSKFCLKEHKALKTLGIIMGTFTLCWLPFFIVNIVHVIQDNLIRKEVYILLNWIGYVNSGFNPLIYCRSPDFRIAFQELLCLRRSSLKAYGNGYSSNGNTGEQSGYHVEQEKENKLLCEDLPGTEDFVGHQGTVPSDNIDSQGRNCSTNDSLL
- Measurement Description: Radioligand binding beta2 (h) (antagonist radioligand), [^3H](−)CGP 12177, CHO cells
Quantity Measured: Mean Percent Inhibition of Control Specific Binding (%)

>  <Molecule>
COCc1cc(CCN)c(OC)cc1Br [Compound 2CB-5MM]

>  <Test Value>
18.8

$$$$
>  <Molecule>
COCCc1cc(CCN)c(OC)cc1Br [Compound 2CB-5ME, reference compound]

>  <Test Value>
31.8

$$$$
>  <Molecule>
COCc1cc(CCN)c(OC)cc1CC(C)C [Compound 2CiBu-5MM]

>  <Test Value>
38.3

$$$$
>  <Molecule>
COCc1cc(CCN)c(O)cc1CC(C)C [2CiBu-2OH-5MM]

>  <Test Value>
42.1

$$$$
